target.desc: MPSK1 (Homo sapiens)
Construct: gene STK16; catalytic domain-containing construct
Sequence (O75716 whole entry, the tested form may be a part): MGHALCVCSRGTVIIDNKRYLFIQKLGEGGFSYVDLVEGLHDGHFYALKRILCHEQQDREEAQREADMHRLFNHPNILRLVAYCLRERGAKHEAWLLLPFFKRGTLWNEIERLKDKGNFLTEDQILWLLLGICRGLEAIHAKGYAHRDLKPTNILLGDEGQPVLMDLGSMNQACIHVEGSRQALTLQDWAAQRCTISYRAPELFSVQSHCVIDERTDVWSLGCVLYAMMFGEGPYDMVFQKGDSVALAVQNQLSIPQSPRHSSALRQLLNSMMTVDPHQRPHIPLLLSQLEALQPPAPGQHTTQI
run.description: biochemical
Set-up: Thermal shift assay (DSF, SYPRO Orange), 2 uM kinase domain, mean delta Tm of triplicates versus DMSO
settings: read-out: MPSK1
quantity.measured: ΔTm at 12.5 µM (°C)

{"smi": "Cc1ccc(NC(=O)c2ccc(CN3CC[C@H](N(C)C)C3)c(C(F)(F)F)c2)cc1Nc1nccc(-c2cncnc2)n1", "target.desc": "MPSK1 (Homo sapiens)", "unit.abbreviation": "°C", "ΔTm at 12.5 µM": 2.51}
{"smi": "Clc1ccc(Nc2nnc(Cc3ccncc3)c3ccccc23)cc1", "target.desc": "MPSK1 (Homo sapiens)", "unit.abbreviation": "°C", "ΔTm at 12.5 µM": 0.513}

1 = CC(C)(C)c1nc(-c2cccc(NS(=O)(=O)c3c(F)cccc3F)c2F)c(-c2ccnc(N)n2)s1
2 = Oc1c2ccccc2c2c3c(cccc13)N=N2
Ask | Select the item with the higher value of ΔTm at 12.5 µM from the options 1 and 2 listed. Provide the label of your selected option as the answer.
Reply | 1

P = C[C@@]1(C(=O)Nc2ccc(F)nc2)CCCN1c1nc(Nc2cc(C3CC3)n[nH]2)c2cccn2n1
Q = Cc1cccc(-c2nn3c(c2-c2ccnc4ccc(C(N)=O)cc24)CCC3)n1
Ask | Input pair: P , Q . Output: entry with lower ΔTm at 12.5 µM. Give the label of your selection.
Reply | Q

P = COc1cc2nccc(Oc3ccc(NC(=O)Nc4cc(C)on4)c(Cl)c3)c2cc1OC
Q = Cc1cnc(Nc2ccc(OCCN3CCCC3)cc2)nc1Nc1cccc(S(=O)(=O)NC(C)(C)C)c1
R = COc1cc(CCc2cc(NC(=O)c3ccc(N4C[C@@H](C)N[C@@H](C)C4)cc3)n[nH]2)cc(OC)c1
Ask | # desc sort on ΔTm at 12.5 µM across 3 compounds Field: ranking. Enter the labels in the order requested.
Reply | Q, R, P

----------
target.desc: BIKE (Homo sapiens, UniProt Q9NSY1)
Construct: gene BMP2K; catalytic domain-containing construct
Sequence (Q9NSY1 whole entry, the tested form may be a part): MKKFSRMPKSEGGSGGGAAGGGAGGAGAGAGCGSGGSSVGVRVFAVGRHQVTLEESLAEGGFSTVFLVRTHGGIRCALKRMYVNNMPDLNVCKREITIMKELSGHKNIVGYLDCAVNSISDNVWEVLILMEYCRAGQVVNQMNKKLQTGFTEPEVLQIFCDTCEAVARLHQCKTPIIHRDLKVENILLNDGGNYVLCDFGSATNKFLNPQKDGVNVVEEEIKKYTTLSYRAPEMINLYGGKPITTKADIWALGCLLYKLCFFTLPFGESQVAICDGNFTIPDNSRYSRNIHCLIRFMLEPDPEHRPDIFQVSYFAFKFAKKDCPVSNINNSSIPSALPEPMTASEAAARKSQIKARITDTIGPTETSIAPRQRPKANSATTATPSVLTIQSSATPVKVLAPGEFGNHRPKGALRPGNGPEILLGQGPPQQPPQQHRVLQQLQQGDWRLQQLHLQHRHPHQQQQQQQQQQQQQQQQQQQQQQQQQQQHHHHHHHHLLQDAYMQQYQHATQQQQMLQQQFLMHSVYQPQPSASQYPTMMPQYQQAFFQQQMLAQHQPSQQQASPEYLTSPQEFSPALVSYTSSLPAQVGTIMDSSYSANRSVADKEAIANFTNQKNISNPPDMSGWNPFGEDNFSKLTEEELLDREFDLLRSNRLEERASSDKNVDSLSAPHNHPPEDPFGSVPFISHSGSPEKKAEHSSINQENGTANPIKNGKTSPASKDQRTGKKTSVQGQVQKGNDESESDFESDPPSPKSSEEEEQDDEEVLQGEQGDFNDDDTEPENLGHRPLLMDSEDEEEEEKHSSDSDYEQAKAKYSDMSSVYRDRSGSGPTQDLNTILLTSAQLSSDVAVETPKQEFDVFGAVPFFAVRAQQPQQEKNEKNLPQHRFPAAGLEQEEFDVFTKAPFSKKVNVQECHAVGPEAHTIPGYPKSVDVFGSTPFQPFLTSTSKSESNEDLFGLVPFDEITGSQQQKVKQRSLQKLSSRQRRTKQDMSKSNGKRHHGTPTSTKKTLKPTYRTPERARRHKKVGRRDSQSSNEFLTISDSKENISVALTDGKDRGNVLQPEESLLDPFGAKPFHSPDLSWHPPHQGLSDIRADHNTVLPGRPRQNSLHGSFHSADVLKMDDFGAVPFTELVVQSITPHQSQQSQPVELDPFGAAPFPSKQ
run.description: biochemical
Set-up: Thermal shift assay (DSF, SYPRO Orange), 2 uM kinase domain, mean delta Tm of triplicates versus DMSO
settings: read-out: BIKE
quantity.measured: ΔTm at 12.5 µM (°C)

Check out these entries, answers already filled in.
{"compound": "Cn1cc(-c2[nH]c3cc(NC(=O)[C@H](N)C4CCCCC4)cc4c3c2C=NNC4=O)cn1", "ΔTm at 12.5 µM / °C": 19.1}
{"compound": "CCc1cncnc1N1CCN(Cc2nc3ccc(C(F)(F)F)cc3[nH]2)CC1", "ΔTm at 12.5 µM / °C": 0.45}
{"compound": "COc1cc2nccc(Oc3ccc(NC(=O)C4(C(=O)Nc5ccc(F)cc5)CC4)cc3)c2cc1OC [Cabozantinib]", "ΔTm at 12.5 µM / °C": 0.743}
{"compound": "CC(C)(C)c1cc(NC(=O)Nc2ccc(-c3cn4c(n3)sc3cc(OCCN5CCOCC5)ccc34)cc2)no1", "ΔTm at 12.5 µM / °C": 0.54}

P = COc1cc2nccc(Oc3ccc(NC(=O)NC4CC4)c(Cl)c3)c2cc1C(N)=O
Q = COc1cc(Nc2c(C#N)cnc3cc(OCCCN4CCN(C)CC4)c(OC)cc23)c(Cl)cc1Cl
Ask | When their ΔTm at 12.5 µM values are compared, which is larger, P or Q ? Your answer should be the label attached to the chosen record.
Reply | Q
